The measurements presented in this section are drawn from patent US20220313640A1.

Assay: Single Ascending Dose (SAD) study plasma PK in healthy volunteers
Assay type: in vivo, human
Details: human, plasma, po, 1 g, 1 g single oral dose, fasted; median
Protocol: The 0.5, 2, 3, and 4 g doses were evaluated under fasted conditions (after an overnight fast) while the 1 g dose was evaluated under both fasted and fed conditions (within 30 minutes of consumption of a meal) in a crossover design. […] Blood samples for PK analysis were obtained at several time points after dose administration. Safety assessments included monitoring of adverse events and clinical laboratory testing including monitoring of kidney function.
READOUT_LABEL: Tmax (h)
Unit h implied. Number only.

Prompt: Look at this compound and give its reported Tmax. [2H][C@@](N)(CO)C(=O)O [Compound 100]
Response: 1

----------
Assay: Pharmacokinetics of non-deuterated D-serine in male Sprague-Dawley rats, 300 mg/kg PO
Assay type: in vivo
Conditions: rat, plasma, 8 hr, mean, endogenous level subtracted, read-out: Plasma concentration
Procedure: The hippocampus, cortex and plasma were collected and analyzed. Additional blood was collected and were analyzed for the full clinical chemistry profile. Urine was also collected and examined for glucose and total protein. […] The mean plasma, hippocampus, and cortex concentration at 1 hour are 19200 ng/mL, 674 ng/g, and 754 ng/g; respectively. The mean plasma, hippocampus, and cortex concentrations at 8 hours were 11250 ng/mL, 17725 ng/g, and 11875 ng/g, respectively. […]
READOUT_LABEL: concentration at 8 h (ng/mL)
Reply with just the number (in ng/mL).

Prompt: Item under review: NC(CO)C(=O)O (stereo in doubt) . Reported concentration at 8 h?
Response: 11200

----------
assay: Single Ascending Dose (SAD) study plasma PK in healthy volunteers; assay type: in vivo, human; conditions: human, plasma, po, 0.5 g, 0.5 g single oral dose, fasted; arithmetic mean; read-out: t1/2 (converted)
READOUT_LABEL: half-life (h)
Answer with a number only, understood to be in h.

Prompt: Would you kindly share the measured half-life for [2H][C@@](N)(CO)C(=O)O ?
Response: 15.9
